- measured-on: Sodium-dependent dopamine transporter (Rattus norvegicus, UniProt P23977)
- Sequence (P23977 whole entry): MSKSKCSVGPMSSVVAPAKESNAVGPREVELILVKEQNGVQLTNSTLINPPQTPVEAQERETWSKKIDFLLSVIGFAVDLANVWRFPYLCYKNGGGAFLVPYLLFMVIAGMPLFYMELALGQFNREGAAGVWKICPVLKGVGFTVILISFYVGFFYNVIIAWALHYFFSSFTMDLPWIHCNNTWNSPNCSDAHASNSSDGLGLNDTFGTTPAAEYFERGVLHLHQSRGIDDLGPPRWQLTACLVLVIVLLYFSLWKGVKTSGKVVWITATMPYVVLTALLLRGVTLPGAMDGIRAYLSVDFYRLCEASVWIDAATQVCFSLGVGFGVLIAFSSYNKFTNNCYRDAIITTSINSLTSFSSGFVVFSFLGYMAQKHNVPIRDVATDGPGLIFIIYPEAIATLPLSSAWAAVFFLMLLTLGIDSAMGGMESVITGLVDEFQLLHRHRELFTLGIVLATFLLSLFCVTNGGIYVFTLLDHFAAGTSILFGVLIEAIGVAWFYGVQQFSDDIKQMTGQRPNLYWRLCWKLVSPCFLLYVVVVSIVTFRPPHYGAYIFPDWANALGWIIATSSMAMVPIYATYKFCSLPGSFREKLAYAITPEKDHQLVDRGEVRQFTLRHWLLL
- assay-method-text: Ability to inhibit high affinity reuptake of [3H]DA from dopamine transporter into nerve endings synaptosomes
pKi: −log10 of the molar value.
I would appreciate it if you labelled entries 1 when pKi is 5 or higher, otherwise -1.

compound: CNC(=O)C1C2CC3CCC1N3C/C2=C\c1ccc(Cl)c(Cl)c1 (stereo not given)
assigned-label: 1
--
compound: COC(=O)C1C2CC3CCC1N3C/C2=C\c1ccc(Cl)cc1 (stereo not given)
assigned-label: 1
--
compound: O=C(OCC1C2CC3CCC1N3C/C2=C\c1ccc(Br)cc1)c1ccccc1 (stereo not given)
assigned-label: 1
--
compound: COC(=O)C1C2CC3CCC1N3C/C2=C\c1ccc(/C=C2\CN3C4CCC3C(C(=O)OC)C2C4)cc1 (stereo not given)
assigned-label: -1

----------
- assay-method-text: Uptake ratio Ki of dopamine relative to serotonin (5-HT) at monoamine transporter
Please enter 1.0 where Ratio is greater than or equal to 90, and 0.0 where it is lower.

compound: COC(=O)C1C2CC3CCC1N3C/C2=C\c1ccc(Br)c(Cl)c1 (configuration not stated)
assigned-label: 1.0
--
compound: COC(=O)C1C2CC3CCC1N3C/C2=C\c1cccc(Cl)c1 (configuration not stated)
assigned-label: 1.0
--
compound: COC(=O)C1C2CC3CCC1N3C/C2=C\c1cccc2ccccc12 (configuration not stated)
assigned-label: 0.0
--
compound: COC(=O)C1C2CC3CCC1N3C/C2=C\c1ccc(OC)cc1 (configuration not stated)
assigned-label: 0.0
--
compound: COC(=O)C1C2CC3CCC1N3C/C2=C\c1ccc(Cl)cc1 (configuration not stated)
assigned-label: 0.0
--
compound: COC(=O)C1C2CC3CCC1N3C/C2=C\c1ccc(I)c(Cl)c1 (configuration not stated)
assigned-label: 1.0
--
compound: O=C(OCC1C2CC3CCC1N3C/C2=C\c1ccc(I)c(Cl)c1)c1ccccc1 (configuration not stated)
assigned-label: 1.0
--
compound: CC(=O)OCC1C2CC3CCC1N3C/C2=C\c1ccc2ccccc2c1 (configuration not stated)
assigned-label: 1.0
--
compound: CON(C)C(=O)C1C2CC3CCC1N3C/C2=C\c1ccc(Cl)c(Cl)c1 (configuration not stated)
assigned-label: 1.0
--
compound: COC(=O)C1C2CC3CCC1N3C/C2=C\c1ccc(F)cc1 (configuration not stated)
assigned-label: 0.0
--
compound: COC(=O)C1C2CC3CCC1N3C/C2=C\c1ccc(/C=C2\CN3C4CCC3C(C(=O)OC)C2C4)cc1 (configuration not stated)
assigned-label: 0.0
--
compound: CN(C)C(=O)C1C2CC3CCC1N3C/C2=C\c1ccc(Cl)c(Cl)c1 (configuration not stated)
assigned-label: 1.0
--
compound: Clc1ccc(/C=C2\CN3C4CCC3C(/C=C\c3ccccc3)C2C4)cc1Cl (configuration not stated)
assigned-label: 0.0
--
compound: O=C(OCC1C2CC3CCC1N3C/C2=C\c1ccc(Cl)c(Cl)c1)c1ccccc1 (configuration not stated)
assigned-label: 1.0
--
compound: O=C(OCC1C2CC3CCC1N3C/C2=C\c1ccc(I)cc1)c1ccccc1 (configuration not stated)
assigned-label: 1.0
--
compound: O=C(OCC1C2CC3CCC1N3C/C2=C\c1ccc(Cl)c(Cl)c1)c1ccc2ccccc2c1 (configuration not stated)
assigned-label: 1.0
--
compound: COC(=O)C1C2CC3CCC1N3C/C2=C\c1ccc(F)c(F)c1 (configuration not stated)
assigned-label: 0.0
--
compound: COC(=O)C1C2CC3CCC1N3C/C2=C\c1ccc(Br)cc1 (configuration not stated)
assigned-label: 0.0
--
compound: COC(=O)C1C2CC3CCC1N3C/C2=C\c1ccccc1 (configuration not stated)
assigned-label: 0.0
--
compound: COC(=O)C1C2CC3CCC1N3C/C2=C\c1ccc2ccccc2c1 (configuration not stated)
assigned-label: 0.0
--
compound: COC(=O)C1C2CC3CCC1N3C/C2=C\c1ccc(C)c(Cl)c1 (configuration not stated)
assigned-label: 1.0
